Biological target: SARS-CoV-2 Spike RBD-His Tag, Sino Biological (SARS-CoV-2)
Record form. Attribute: xmid (log10). Fill in for each entry.
Keep the answer to the number alone.

Per the records, this binder ( vhh_tstrep_sars2_pjl1_L_77 (VHH) VHH: QVQLQESGGGLVQAGGSLRLSCAASGRTFSEYAMGWFRQAPGKEREFVATISWSGGATYHTDSVKGRFTISRDNAKNTVYLQMNSLKPDDTAVYYCAAAGLGTVVSEWDYDYDYWGQGTQVTVSS ) has xmid (log10) equal to -1.6

Per the records, this binder ( vhh_tstrep_sars2_pjl1_L_137 (VHH) VHH: QVQLQESGGGLVQAGGSLRLSCAASGRTFSEYAMGWFRQAPGKEREFVATISWSGGATYHTDSVKGRFTISRDNAKNTVYLQMNSLKPDDTAVYYCAAAGLGTVVSAWDYDYDYWGQGTQVTVSS ) has xmid (log10) equal to -0.676

Per the records, this binder ( vhh_tstrep_sars2_pjl1_L_144 (VHH) VHH: QVQLQESGGGLVQAGGSLRLSCAASGRTFSEYAMGWFRQAPGKEREFVATSSWSGGATYHTDSVKGRFTISRDNAKNTVYLQMNSLKPDDTAVYYCAAAGLGTVVSEWDYDYDYWGQGTQVTVSS ) has xmid (log10) equal to 0.491

Per the records, this binder ( vhh_tstrep_sars2_pjl1_L_132 (VHH) VHH: QVQLQESGGGLVQAGGSLRLSCAASGRTFSEYAMGWFRQAPGKEREFVATISWGGGATYHTDSVKGRFTISRDNAKNTVYLQMNSLKPDDTAVYYCAAAGLGTVVSEWDYDYDYWGQGTQVTVSS ) has xmid (log10) equal to 0.0703
